- measurement target: EGFR(L858R/T790M) (Homo sapiens, UniProt P00533, L858R/T790M)
- Construct: purchased from Carna (GST-a.a. 669-1210)
- Sequence (P00533 669-1210 T790M/L858R): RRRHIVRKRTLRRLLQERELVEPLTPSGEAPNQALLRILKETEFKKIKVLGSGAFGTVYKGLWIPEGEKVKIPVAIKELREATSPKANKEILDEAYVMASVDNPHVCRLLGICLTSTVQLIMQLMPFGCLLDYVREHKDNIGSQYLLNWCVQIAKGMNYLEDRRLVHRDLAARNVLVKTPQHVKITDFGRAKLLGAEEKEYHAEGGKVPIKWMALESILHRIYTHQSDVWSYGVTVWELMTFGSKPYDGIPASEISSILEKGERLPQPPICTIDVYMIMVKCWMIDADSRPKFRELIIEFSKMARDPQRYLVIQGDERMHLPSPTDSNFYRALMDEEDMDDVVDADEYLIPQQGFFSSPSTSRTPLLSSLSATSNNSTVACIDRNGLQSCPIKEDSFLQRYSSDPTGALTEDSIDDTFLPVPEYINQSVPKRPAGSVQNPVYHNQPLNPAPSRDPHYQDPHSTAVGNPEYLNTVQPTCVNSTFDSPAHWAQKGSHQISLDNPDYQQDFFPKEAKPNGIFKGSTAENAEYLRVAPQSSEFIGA
- test summary: EGFR biochemical assay (HTRF), IC50 determinations
- test parameters: EGFR (L858R/T790M) with 90 min pre-incubation; read-out: IC50 (μM) Column B
- Method: All EGFR biochemical assays were carried out by HTRF method. […] The substrate peptide Biotin-TK-peptide was purchased from Cis-Bio. […] All reactions were carried out at room temperature in white ProxiPlate™ 384-well Plus plates (PerkinElmer) and were quenched with 5 μL of 0.2 M EDTA at 60 min. Five L of the detection reagents (2.5 ng PT66K and 0.05 μg SAXL per well) were added, the plates were incubated at room temperature for 1 h and then read in EnVision reader. […]
Recorded measurements of IC50, one per entry
measured property: IC50 (µM)

compound: Cc1cc(C(=O)Nc2nc3cccc(C)c3n2C2CCCCN(C(=O)/C=C/CN(C)C)C2)oc1C (centres unmarked)
value modifier: =
reading: 0.006

compound: C=CC(=O)N1CCCC[C@@H](n2c(NC(=O)c3ccnc(C)c3)nc3cc(CN4CC(F)(F)C4)cc(C)c32)C1
value modifier: <
reading: 0.001

compound: Cc1cccc2nc(NC(=O)c3cccnn3)n(C3CCCCN(C(=O)/C=C/CN(C)C)C3)c12 (centres unmarked)
value modifier: =
reading: 0.007

compound: C=CC(=O)N1CCC[C@@H](n2c(NC(=O)c3cccc(C(F)(F)F)c3)nc3cc(COCC)ccc32)C1
value modifier: =
reading: 0.004

compound: C=CC(=O)N1CCCC[C@@H](n2c(NC(=O)c3cc(C)nc(C)c3)nc3cc(CN4CCCC4)cc(C)c32)C1
value modifier: <
reading: 0.001

compound: C=CC(=O)N1CCCC[C@@H](n2c(NC(=O)c3ccnc(C)c3)nc3cc(CN4CCS(=O)(=O)CC4)cc(C)c32)C1
value modifier: <
reading: 0.001

compound: C=CC(=O)N1CCCC[C@@H](n2c(NC(=O)c3cc(C)nc(C)c3)nc3cc(CN4CCN(C(C)=O)CC4)cc(C)c32)C1
value modifier: <
reading: 0.001

compound: Cc1cc(C(=O)Nc2nc3cccc(C(F)(F)F)c3n2[C@@H]2CCCCN(C(=O)/C=C/CN(C)C)C2)ccn1
value modifier: =
reading: 0.001

compound: C=CC(=O)N1CCOCC(n2c(NC(=O)c3cccc(C(F)(F)F)c3)nc3cccc(C)c32)C1 (single isomer, unassigned) [Example 21-7B]
value modifier: <
reading: 0.001

compound: Cc1cc(C(=O)Nc2nc3cccc(Cl)c3n2[C@@H]2CCCCN(C(=O)/C=C/CN(C3CC3)C3CC3)C2)ccn1
value modifier: =
reading: 0.005

compound: C=CC(=O)N1CCCC[C@@H](n2c(NC(=O)c3ccnc(C)c3)nc3cc(CN4CC[C@H](OC)C4)cc(C)c32)C1
value modifier: <
reading: 0.001

compound: Cc1cccc2nc(NC(=O)c3cn4ccsc4n3)n(C3CCCCN(C(=O)/C=C/CN(C)C)C3)c12 (centres unmarked)
value modifier: =
reading: 0.048

compound: Cc1cccc2nc(NC(=O)c3cncc(F)c3)n([C@@H]3CCCCN(C(=O)/C=C/CN(C)C)C3)c12
value modifier: <
reading: 0.001

compound: Cc1cc(C(=O)Nc2nc3cccc(Cl)c3n2[C@@H]2CCCCN(C(=O)/C=C/CN3CC[C@H](O)C3)C2)ccn1
value modifier: <
reading: 0.001
